Data origin, for the record: PubChem BioAssay AID1963842

tested on: 677734-321-R-J1-PDC complex spheroid viability; test: Anticancer human tumor 677734-321-R-J1-PDC patient-derived soft tissue sarcoma cell line growth inhibition [POLQ]; conditions: second compound 0.0316 µM; first compound 3.16 µM; hits give low values;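 also: spheroids exposed to compounds for one week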
Binarize viability, T/C at 70%; below is True, at or above is False.

>>> class_label("CC(C)n1c(=O)n(C)c2cnc3cc(F)c(-c4ccc(OCCCN5CCCCC5)nc4)cc3c21 + Nc1ccc(C#CCN(C(=O)Cc2ncc(C(F)(F)F)cc2C(F)(F)F)c2ccc(F)cc2)nn1")
"False"
>>> class_label("CCCS(=O)(=O)Nc1ccc(F)c(C(=O)c2c[nH]c3ncc(-c4ccc(Cl)cc4)cc23)c1F + Nc1ccc(C#CCN(C(=O)Cc2ncc(C(F)(F)F)cc2C(F)(F)F)c2ccc(F)cc2)nn1")
"False"
>>> class_label("COc1cc(C2c3cc4c(cc3C(OC3OC5COC(C)OC5C(O)C3O)C3COC(=O)C23)OCO4)cc(OC)c1O (stereo not given) + Cc1cccc(N(C)C(=O)C2C(O)CCN2c2nc(C)cc(C(F)(F)F)c2C#N)c1")
"True"
>>> class_label("CCc1cc2c(N3CCc4c(cc(Cn5ccnc5)cc4-c4cn(C)nc4C(F)(F)F)C3=O)cc(C)nc2c(OC)n1 + Nc1ccc(C#CCN(C(=O)Cc2ncc(C(F)(F)F)cc2C(F)(F)F)c2ccc(F)cc2)nn1")
"True"
>>> class_label("CCCS(=O)(=O)Nc1ccc(F)c(C(=O)c2c[nH]c3ncc(-c4ccc(Cl)cc4)cc23)c1F + Cc1cccc(N(C)C(=O)C2C(O)CCN2c2nc(C)cc(C(F)(F)F)c2C#N)c1")
"True"
>>> class_label("C#Cc1c(F)ccc2cc(O)cc(-c3ncc4c(N5CC6CCC(C5)N6)nc(OCC56CCCN5CC(F)C6)nc4c3F)c12 (stereo not given) + Cc1cccc(N(C)C(=O)C2C(O)CCN2c2nc(C)cc(C(F)(F)F)c2C#N)c1")
"False"

-- ask Consider the compound COc1cc2cc(C(=O)CCC(=O)O)sc2cc1OC + COC1C(OC(N)=O)C(O)C(Oc2ccc3c(O)c(NC(=O)c4ccc(O)c(CC=C(C)C)c4)c(=O)oc3c2C)OC1(C)C . Is its viability, T/C strictly less than 70%?
-- reply False

-- ask Moving on to the next compound: O=C(c1cc(Cc2n[nH]c(=O)c3ccccc23)ccc1F)N1CCN(C(=O)C2CC2)CC1 + Cc1cccc(N(C)C(=O)C2C(O)CCN2c2nc(C)cc(C(F)(F)F)c2C#N)c1
-- reply False

-- ask Moving on to the next compound: CC1COCCN1c1cc(C2(S(C)(=N)=O)CC2)nc(-c2ccnc3[nH]ccc23)n1 (stereo not given) + Nc1ccc(C#CCN(C(=O)Cc2ncc(C(F)(F)F)cc2C(F)(F)F)c2ccc(F)cc2)nn1
-- reply True

-- ask Moving on to the next compound: COc1ccc([C@@H](O)c2cc(-c3ncnc4cc(N5CCOCC5)ccc34)c(F)cc2Cl)nn1 + Nc1ccc(C#CCN(C(=O)Cc2ncc(C(F)(F)F)cc2C(F)(F)F)c2ccc(F)cc2)nn1
-- reply False

-- ask Moving on to the next compound: COc1ccc([C@@H](O)c2cc(-c3ncnc4cc(N5CCOCC5)ccc34)c(F)cc2Cl)nn1 + COC1C(OC(N)=O)C(O)C(Oc2ccc3c(O)c(NC(=O)c4ccc(O)c(CC=C(C)C)c4)c(=O)oc3c2C)OC1(C)C
-- reply False
